Sourced from PubChem BioAssay (NCI)

- System: T-47D breast
- assayMethodText: NCI tumour cell line growth inhibition, 48 h
Reported TGI values for the following molecules.

Known results for molecules:
# molecule, TGI
measured = [
    ("Cc1c2c(n(CCc3ccccc3)c1C)NN=C(C#N)S2(=O)=O", "> 100 µM"),
    ("S=C(N/N=C/c1ccccn1)Nc1ccccn1", "90.7 µM"),
    ("Cc1ccc2c(N)c(C(=O)N[C@H]3CCc4cc(N5CC6CCC(C5)N6)ccc4C3)sc2n1", "3.55 µM"),
    ("CCN(CC)CCOc1ccc(/C=C2\\CC3C4CC=C5C[C@@H](N6CCCC6)CC[C@]5(C)C4CC[C@]3(C)[C@H]2O)cc1OC (stereo not given in full)", "22.6 µM"),
]

We next turn to a different molecule, shown below.
Ask: Return value of TGI for input `COc1nc(C)cc2c(=O)n(-c3ccccc3)n(CCCN3CCN(c4ccc(Cl)cc4)CC3)c(=O)c12` , no commentary.
Reply: > 50 µM
